Data credit: PubChem BioAssay

assay: inhibitors of Chlamydomonas gravitaxis, primary screen, whole organism, Chlamydomonas reinhardtii, WT vs cilia-less mutant, absorbance, 96-well (AID 463189); conditions: OD600 absorbance, 2 days, at 10 µM;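 note: 0% = wild type cc124 cells in DMSO and 100% = ciliumless bld1 mutant cells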
Activity calls are given as the source filed them.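 Rule for the calls: active = inhibition at or above 50% relative to wild type and mutant plate controls; inactive = inhibition below 50%.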
Classes used: active, inactive

| Molecule | Group Label |
| --- | --- |
| COc1cccc(C2C(C(=O)c3cc4ccccc4o3)=C(O)C(=O)N2CCN(C)C)c1OC (stereo unspecified) | inactive |
| CCN1CCCC1Cn1cnc2c([nH]c3ccc(C)cc32)c1=O (stereo unspecified) | active |
| COCc1cc(C)nc(N)c1C#N | inactive |
| COC(=O)c1cc(=O)n2c(-c3ccc(OC)cc3)csc2n1 | inactive |
| CC1(C)CC(=O)C2=C(C1)N(Cc1ccco1)C(=O)C2(O)C(F)(F)F (stereo unspecified) | inactive |
| Cc1occc1C(=O)OCC(=O)Nc1ccc(F)cc1 | inactive |
| Cc1cccc(C)c1N1C(=O)C2ON(c3ccccc3)C(c3ccncc3)C2C1=O (stereo unspecified) | inactive |
| CCCCC1(C(=O)OCC)CC(CN2CCOCC2)OC1=O (stereo unspecified) | inactive |
| CCCOc1ccc(/C(O)=C2/C(=O)C(=O)N(CCCn3ccnc3)C2c2cccs2)cc1 (stereo unspecified) | inactive |
| O/N=C1\CCc2cc(Cl)ccc21 | inactive |
| O=C(NC1CCCCC1)N1CCSC1=Nc1ccccc1 | inactive |

----------
Entries and their inhibition values follow.
target: Dual specificity protein phosphatase 6 (Homo sapiens); assay: DUSP6 inhibitors restoring Erk phosphorylation by chemical complementation, primary imaging in DUSP6-transfected HeLa (AID 609); settings: HeLa MKP-3 transfected, phospho-Erk imaging KS statistic; at 10 µM; stronger effect = higher value; cells stimulated with TPA for 15 min;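 for inhibition: phospho-Erk level distribution per well compared with pooled transfected vehicle control wells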
Readout: inhibition (%)

| Compound | Readout | Observed Measurement |
| --- | --- | --- |
| CNC(=O)c1ncnnc1N(C)C(=O)NCc1ccccc1 | inhibition | -9.66 |
| CN(C)C(CN1C(=O)C2CC=CCC2C1=O)c1cn(C)c2ccccc12 (stereo unspecified) | inhibition | -3.95 |
| CC1CN(C2CCN(C(=O)c3ccccc3Cl)CC2)CC(C)O1 (stereo unspecified) | inhibition | -5.62 |
| CCN1C(=O)CC(N2CCN(c3ccc(OC)cc3)CC2)C1=O (stereo unspecified) | inhibition | 16.1 |
| CC1(C)Cc2c(sc3[nH]c(=S)n(Cc4ccco4)c(=O)c23)CO1 | inhibition | -2.69 |
| CN1CCN(CCCCC(=O)c2ccccc2)CC1 | inhibition | -6.06 |

----------
test: DUSP6 inhibitors restoring Erk phosphorylation by chemical complementation, primary imaging in DUSP6-transfected HeLa (AID 609); conditions: HeLa MKP-3 transfected, phospho-Erk imaging KS statistic; measured here: nuclear pErk red intensity z-score; at 10 µM; stronger effect = higher value; cells stimulated with TPA for 15 min

| Molecule | z-score |
| --- | --- |
| CC(=O)c1c(N)nc2n(c1=O)CCCCC2 | 0.934 |
| COC(=O)c1ccc(Oc2nc3ccccc3n3c(C)nnc23)cc1 | -0.937 |
| CC1(C)CC(=O)C2=C(C1)Oc1nc3ccccc3cc1C2C(C#N)C#N (stereo unspecified) | -1.04 |
| CCOC(=O)C1/C(=N\O)CC(C)(O)C(C(=O)OCC)C1c1ccc(OC)c(OC)c1 (stereo unspecified) | -0.582 |
| CN(C1CCS(=O)(=O)C1)S(=O)(=O)c1cccc2nsnc12 (stereo unspecified) | -0.289 |
| CCCc1cc(=O)oc2c(CN3CCCC3)c(O)c(Cl)cc12 | 0.231 |

----------
experiment: inhibitors of mutant huntingtin aggregation, primary screen, imaging, exon1htt(103Q)mCFP cells, high-content imaging (AID 483); settings: exon1htt(103Q)mCFP cell line, aggregate imaging, at 2 µM; stronger effect = higher value;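 note: compound exposure lasted 3 days before fixation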

| Compound | inhibition of aggregation [%] |
| --- | --- |
| COc1cccc(N2C(=O)C(O)=C(C(C)=O)C2c2ccc(OC)c(OC)c2)c1 (configuration not stated) | 14 |
| CC1(C)Cc2c(C#N)c(SCCC#N)nc(N3CCOCC3)c2CS1 | -5.8 |
| NC(CO)C(=O)NNCc1ccc(O)c(O)c1O (configuration not stated) | -16.9 |
| Cc1cc(C)c2c(N)c(C(=O)c3ccccc3)oc2n1 | 6.6 |
| CCN(CC)CCNC(=O)c1ccc(NC(C)=O)cc1 | -5.6 |
| Cc1nnc2n(-c3ccccc3)c(=O)c3c4c(sc3n12)CCCC4 | 8 |
| CN(Cc1ccccc1)Cc1c[nH]c2ccccc12 | -1 |
| CCC1CCCCN1c1nc(-c2ccncc2)nc2ccccc12 (configuration not stated) | 7.3 |
| Cc1nc(-c2coc3cc(OCC(=O)O)ccc3c2=O)cs1 | 16.4 |
| CCN(CCCCOC(=O)c1ccc(OC)c(OC)c1)C(C)Cc1ccc(OC)cc1 (configuration not stated) | -7.1 |
| N=c1ncn(CC(O)CN2CCOCC2)c2nc(N3CCOCC3)[nH]c12 (configuration not stated) | 20.3 |
| CC1(C)CNC(=O)c2sc(N3CCOCC3)nc2C1 | -17.3 |

----------
Overview of reported cell count across a group of compounds:
assay: inhibitors of TNFa-induced NFkB p65 translocation, primary screen, imaging, HUVEC, MLSMR starter and 10KST1 sets (AID 438); conditions: HUVEC TNFa-induced p65 nuclear translocation; measured here: nuclei count (cytotoxicity indicator), at 2.08 µM;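 note: compound added about 3h40 before a 20 min TNFalpha stimulation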
Readout: cell count

| Compound | Observed Measurement |
| --- | --- |
| CCc1nc(SCc2cccnc2)c(C#N)cc1C | 594 |
| COc1cccc(C2=CC(c3ccccc3)n3nnnc3N2)c1 (stereo unspecified) | 586 |
| CN(CC(O)COc1ccc(OCC(O)CN(C)C2CCCCC2)cc1)C1CCCCC1 (stereo unspecified) | 605 |
| CCC(CC)C1C(C#N)=C(N)Oc2n[nH]c(C)c21 (stereo unspecified) | 565 |
| CC(=O)C1=C(O)C(=O)N(Cc2cccnc2)C1c1ccccc1Cl (stereo unspecified) | 645 |
| CC1(C)CNC(=O)c2sc(N3CCOCC3)nc2C1 | 330 |
| COc1ccc2c(c1OC)C(=O)N1c3ccccc3C(=O)N(c3ccccc3)C21 (stereo unspecified) | 475 |
| O=C(O)C1CSCN1S(=O)(=O)c1cccc2nsnc12 (stereo unspecified) | 539 |
| CCOc1ccc(C2/C(=C(/O)c3ccc(OC)cc3)C(=O)C(=O)N2c2cc(C)on2)cc1OC (stereo unspecified) | 314 |
| Cc1[nH]c2ccc3c(ncn3CCC#N)c2c1C | 616 |
| CCS(=O)(=O)CCn1c([N+](=O)[O-])cnc1C | 637 |

----------
experiment: inhibitors of Chlamydomonas gravitaxis, primary screen, whole organism, Chlamydomonas reinhardtii, WT vs cilia-less mutant, absorbance, 96-well (AID 463189); conditions: OD600 absorbance, 2 days, at 10 µM;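 note: 0% = wild type cc124 cells in DMSO and 100% = ciliumless bld1 mutant cells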
Active and inactive are the calls of the source.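 How the source made its calls: active means inhibition at or above 50% relative to wild type and mutant plate controls; inactive means inhibition below 50%.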
Possible outcomes: active, inactive

| Compound | Group Label |
| --- | --- |
| COc1ccccc1N1CCN(CCOc2c(OC)cccc2OC)CC1 | inactive |
| COC(=O)c1ccccc1N1C(=O)[C@@H]2C(c3ccc(Br)cc3)=NO[C@@H]2C1=O | inactive |
| Clc1ccc(Cl)c(-c2ccc(/C=N/c3ncn[nH]3)o2)c1 | active |
| CC(CN1CCN(C)CC1)OC(=O)c1ccc(Cl)cc1Cl (stereo unspecified) | active |
| COc1cccc(-c2nc(NC(C)C)c3ccccc3n2)c1O | active |
| Cn1c2c(c(=O)n(C)c1=O)C(NC(=O)C(C)(C)C)(C(F)(F)F)C(=O)N2 (stereo unspecified) | inactive |
| CCCCc1c(O)nc(SCCN(C)C)n(-c2ccccc2)c1=O | inactive |
| CCOC(=O)N1CCN(/C=C(\C#N)c2nc3ccccc3s2)CC1 | inactive |
| O=C(Nc1cccnc1)c1cccnc1 | inactive |
| COCCOCCOCCC(=O)NC1CC2CCC1(C)C2(C)C (stereo unspecified) | inactive |
| CSc1ccccc1NC(=O)c1c(Br)cnn1C | inactive |
| CC/C(C)=C1\SC(N2CCN(C(C)=O)CC2)=NC1=O | inactive |
| COc1ccc(C(C)=O)cc1CSCCC(=O)O | inactive |
| CCOC(=O)C1(C(=O)OCC)C(c2ccccc2)CC(O)N1C(C)=O (stereo unspecified) | inactive |
| COC(=O)CSc1nnc2n(-c3ccc(OC)cc3)c(=O)c3c4c(sc3n12)CCCCC4 | inactive |
| CCC1=C(C(=O)OC)C(c2cc(OC)ccc2OC)C(C#N)=C(N)O1 (stereo unspecified) | inactive |
| Cc1onc(-c2ccccc2)c1C(=O)N[C@@H]1C(=O)N2[C@@H]1SC(C)(C)[C@@H]2C(=O)O | inactive |
| CCCOc1cc(CN2CCCCC2)cc(C(C)=O)c1 | inactive |
| Cc1nnc2n(-c3ccccc3)c(=O)c3c4c(sc3n12)CC(C)CC4 (stereo unspecified) | inactive |
| CCOc1nc(Oc2cccc(C(=O)O)c2)nc(Oc2cccc(C(=O)O)c2)n1 | inactive |
| O=C1OC(Nc2ccc(Br)cc2F)c2ccccc21 (stereo unspecified) | inactive |
| CCN(CC)c1ccc2cc(-c3nnc(-c4ccncc4)o3)c(=O)oc2c1 | inactive |
| Cn1c(=O)cc(NCc2ccccc2)[nH]c1=O | inactive |
| Fc1ccccc1-c1nc(NCCCN2CCOCC2)c2ccccc2n1 | inactive |
| CCCCOc1nc2ccccc2nc1C(C#N)C(=O)NC1CCCCC1 (stereo unspecified) | inactive |
| CCN1CCc2c(C#N)c(N3CCOCC3)nc(NCc3ccccc3)c2C1 | inactive |
| CCn1nc(NC(=O)c2cccnc2)c2cc3ccccc3nc21 | inactive |
| Cc1cc(=O)oc(C)c1C(=O)NCCN1CCOCC1 | inactive |
| COc1ccc(NC(=O)C2CSC3c4ccccc4C(=O)N23)cc1 (stereo unspecified) | active |
| CCCCOC(=O)C(C)c1c(C)[nH]c(=S)[nH]c1=O (stereo unspecified) | inactive |
| COCCOC(=O)C1=C(C)OC(N)=C(C#N)C1c1ccco1 (stereo unspecified) | inactive |
| Cc1cc(O)c(C(C)C)cc1N=C1CSC(=O)N1 | inactive |
| Cc1ccc(C(=O)CSC2=C(C#N)C(c3ccco3)C3=C(CCCC3=O)N2)cc1 (stereo unspecified) | inactive |
| COc1ccc2[nH]c(C)c(C(=O)CN3CC(C)OC(C)C3)c2c1 (stereo unspecified) | inactive |
| CCN(CC)CCN1C(=O)C(=O)/C(=C(/O)c2ccc(Cl)cc2)C1c1ccncc1 (stereo unspecified) | inactive |
| Cc1ccnc(N2CCN(c3c4c(c(C#N)c5nc6ccccc6n35)CCC4)CC2)c1 | inactive |
| CCCc1cc(C(=O)Cc2ccc(F)cc2)c(O)cc1O | active |
| Cc1cccc(Nc2ncnc3ccccc23)c1 | inactive |
| CC1CC(C(F)(F)F)n2ncnc2N1 (stereo unspecified) | inactive |
| COc1cc(NC2=CC(=O)CC(C)(C)C2)cc(OC)c1OC | inactive |
| N#C/C(C(=O)NCc1ccco1)=C1/SC(Cc2ccc(F)cc2)C(=O)N1c1ccccc1 (stereo unspecified) | inactive |
| C=CCNc1sc(C(=O)C2CC2)c(N)c1C#N | inactive |
| CCOC(=O)C1CCCN(c2nc3ccccc3nc2C(C#N)C(=O)OC(C)C)C1 (stereo unspecified) | inactive |
| N#Cc1nc(COc2ccc(Br)cc2)oc1N1CCCC1 | inactive |
| C[C@]12CC[C@@H]3c4ccc(O)cc4C(=O)C[C@H]3[C@@H]1CC[C@@H]2O | inactive |
| N#CCSc1nc2sc3c(c2c(=O)n1C1CCCCC1)CCCC3 | inactive |
